# System: Escherichia coli TOP10
# METHOD NOTES: shrunken log2 fold change of peptide-encoding DNA abundance (4.5 h post-induction vs induction); higher = less antimicrobial activity (less host growth inhibition)
# CONDITION SUMMARY: time post-induction: 4.5 h; library: site-saturation at positions 5, 18, 19, 20
Classification scheme (shrunken log2 fold change): label 0 = under -0.07, label 1 = from -0.07 up to 0.06, label 2 = 0.06 and over

For this sequence, which bin applies? "RRIRPRPPRLPRPRPRPAHCPRP" label 2

***
For this sequence, which bin applies? "RRIRSRPPRLPRPRPRPLFMPRP" label 0

Next: "RRIRARPPRLPRPRPRPWVRPRP" label 0

Next: "RRIRKRPPRLPRPRPRPESYPRP" label 2

Next: "RRIRFRPPRLPRPRPRPFWMPRP" label 0

Next: "RRIRRRPPRLPRPRPRPPNLPRP" label 2

###

# Test system: Escherichia coli TOP10
# METHOD NOTES: shrunken log2 fold change of peptide-encoding DNA abundance (4.5 h post-induction vs induction); higher = less antimicrobial activity (less host growth inhibition)
# CONDITION SUMMARY: time post-induction: 4.5 h; library: site-saturation at positions 5, 18, 19, 20
shrunken log2 fold change values, listed per item
# output: bare number, no unit

In the examples that follow, each entry is paired with its recorded shrunken log2 fold change.
What value of shrunken log2 fold change on Escherichia coli TOP10 does "RRIRWRPPRLPRPRPRPVAPPRP" have? 0.522

Next: "RRIRYRPPRLPRPRPRPIQFPRP" -0.00822

Next: "RRIRRRPPRLPRPRPRPHTGPRP" -0.105

***
What value of shrunken log2 fold change on Escherichia coli TOP10 does "RRIRQRPPRLPRPRPRPHDIPRP" have? 0.0769

Next: "RRIRLRPPRLPRPRPRPSIRPRP" -0.727

Next: "RRIRDRPPRLPRPRPRPVTFPRP" -0.0135

Next: "RRIRQRPPRLPRPRPRPPLGPRP" 0.547

Next: "RRIRKRPPRLPRPRPRPTLIPRP" -0.0752

Next: "RRIRVRPPRLPRPRPRPYSQPRP" 0.0117

Next: "RRIRPRPPRLPRPRPRPADWPRP" 0.434

Next: "RRIRPRPPRLPRPRPRPRPDPRP" 0.45

Next: "RRIRTRPPRLPRPRPRPFNTPRP" -0.0686

Next: "RRIRHRPPRLPRPRPRPQWQPRP" -0.0687

Next: "RRIRWRPPRLPRPRPRPHWQPRP" -0.00204

Next: "RRIRYRPPRLPRPRPRPGACPRP" -0.497

Next: "RRIRWRPPRLPRPRPRPSVHPRP" -0.136

Next: "RRIRVRPPRLPRPRPRPTDTPRP" 0.817

Next: "RRIRNRPPRLPRPRPRPVDCPRP" -0.209

Next: "RRIRLRPPRLPRPRPRPHAQPRP" 0.133

###

# System: Escherichia coli TOP10;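 note: peptides expressed intracellularly from a pBAD plasmid library in pooled LB shake-flask culture, induced with 0.3% L-arabinose, DNA abundance read by NGS, three biological replicates, DESeq2 with apeglm shrinkage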
# METHOD NOTES: shrunken log2 fold change of peptide-encoding DNA abundance (4.5 h post-induction vs induction); higher = less antimicrobial activity (less host growth inhibition)
# CONDITION SUMMARY: time post-induction: 4.5 h; library: site-saturation at positions 5, 18, 19, 20
VALUE KIND: shrunken log2 fold change
# output: bare number, no unit

In the examples that follow, each entry is paired with its recorded shrunken log2 fold change.
Returns the measured shrunken log2 fold change for the input sequence. Input: "RRIRYRPPRLPRPRPRPNVPPRP" -3.01

Next: "RRIRMRPPRLPRPRPRPDPMPRP" 0.501

Next: "RRIRHRPPRLPRPRPRPQSYPRP" -0.175

***
Returns the measured shrunken log2 fold change for the input sequence. Input: "RRIRTRPPRLPRPRPRPLIYPRP" -0.174

Next: "RRIRDRPPRLPRPRPRPPETPRP" 0.743

Source: the supplement of paper PMC9112550
